Hello, the source for this data is PubChem BioAssay (NCI), in case you need it.

Test system: MOLT-4 leukemia
ASSAY NOTES: NCI tumour cell line growth inhibition, 48 h
Consider the following molecules; for each one, report its TGI.

# TGI (molecule: Cc1cc(N2CCOCC2)nc(N(CCNc2ccnc3cc(Cl)ccc23)Cc2ccco2)n1 ) is > 100 µM

# TGI (molecule: COc1ccc(C2Cc3cc(OC)c(OC)c(OC)c3C2=O)cc1 (stereo not drawn) ) is > 100 µM

# TGI (molecule: O=P(O)(O)OP(=O)(O)O ) is > 100 µM

* * *

System: OVCAR-4 ovarian
ASSAY NOTES: NCI tumour cell line growth inhibition, 48 h
Consider the following molecules; for each one, report its TGI.
Note: unit µM is implicit; provide only the numeric part.

# TGI (molecule: CC(C)c1ccc2c(c1)[C@@]1(C)CC[C@H](C)C(C)(C)C1CC2 (some centres not stated) ) is 30.3

# TGI (molecule: Cc1cc(NC(=O)NC(=O)c2ccccc2[N+](=O)[O-])ccc1Oc1ncc(Cl)cn1 ) is 31.3

# TGI (molecule: C/C=C/C=C/C1=NN(c2cccc(S(=O)(=O)O)c2)C2(C1)C(Cl)C(=O)N2c1nc2ccccc2s1 (configuration not stated) ) is 29.2

# TGI (molecule: O=c1oc2c(Br)c(O)c(Br)cc2c2ccccc12 ) is 89.9

# TGI (molecule: C=CC[Se]C(=O)c1ccccc1OC(C)=O ) is 3.19

# TGI (molecule: Nc1nn(C(=O)Nc2ccc(Cc3ccccc3)cc2)c2ccc(Cl)cc12 ) is 49

# TGI (molecule: C[C@]1(O)CC(=O)c2c(c(-c3ccc4cc5c(c(O)c4c3O)C(=O)C[C@@](C)(O)C5)c3cccc(O)c3c2O)C1 ) is 21.1

* * *

Test system: SN12C renal
ASSAY NOTES: NCI tumour cell line growth inhibition, 48 h
VALUE TYPE: TGI

# TGI (molecule: CC(=O)O[C@@]12[C@@H]3O[C@@]4(O)C[C@]5(C)[C@H]6C[C@@](C(C)C)(O[C@H]5c5ccoc5)O[C@H]1[C@]6(C4)O[C@]2(O)C(C)=CC3(C)C ) is > 100 µM

# TGI (molecule: Cc1cc(C)nc(NC(=S)Nc2cccc(Cl)c2)c1 ) is > 100 µM

# TGI (molecule: NC(N)=NS(=O)(=O)c1ccc(Nc2c3ccccc3nc3ccc(C(=O)Nc4ccc(S(N)(=O)=O)cc4)cc23)cc1 ) is > 100 µM

# TGI (molecule: NC(Cc1cc(Br)c(O)c(Br)c1)C(=O)O (stereo not given) ) is > 100 µM

# TGI (molecule: CCCCCCOC(=O)C(N)Cc1ccc(OC)cc1 (stereo not given) ) is > 100 µM

# TGI (molecule: COc1cc(S(=O)(=O)N/N=C/C=C/c2ccccc2)c(OC)cc1NC(C)=O ) is > 100 µM

# TGI (molecule: CCOC(=O)CCC(NC(=O)N1CCN(c2c(C)nc(C)[nH]c2=O)CC1)C(=O)OCC (stereo not given) ) is > 100 µM

# TGI (molecule: Nc1ccccc1S(=O)c1ccccc1 (stereo not given) ) is > 100 µM

# TGI (molecule: COc1ccc(Nc2nc(NCc3ccccc3)c3ccccc3n2)cc1 ) is 19.6 µM

# TGI (molecule: O=C(CC(=O)C(=O)CC(=O)OCc1ccccc1)OCc1ccccc1 ) is > 100 µM

# TGI (molecule: Cc1cc(=O)[nH]c(CNC(=O)c2cccc3ccccc23)n1 ) is > 100 µM

# TGI (molecule: O=C(O)c1cnccc1-c1cc(=O)[nH]n1-c1ccccc1 ) is > 100 µM

# TGI (molecule: O=S1Cc2ccccc2CS1 (stereo not given) ) is 28.3 µM

# TGI (molecule: C/C=C1/CN2CCC34C5=CC(=O)C(c6cc7c(cc6OC)N(C)C6=C(C(=O)OC)CC8(CC)CCCN9CCC67C98)=CC5=NC23CCC1C4C(=O)OC (stereo not given) ) is 27.7 µM

# TGI (molecule: C/C(=C/CNc1ncnc2c1ncn2CCC(=O)O)CO ) is > 100 µM

* * *

Consider the following compounds; for each one, report its TGI.
Test system: SF-539 CNS
ASSAY NOTES: NCI tumour cell line growth inhibition, 48 h

# TGI (compound: O=C(CC(=O)C(=O)CC(=O)OCc1ccccc1)OCc1ccccc1 ) is > 100 µM

# TGI (compound: Nc1ccc(-c2nc3cc(F)ccc3s2)cc1Br ) is > 71.4 µM

# TGI (compound: Cc1cc(NC(=O)NC(=O)c2ccccc2[N+](=O)[O-])ccc1Oc1ncc(Cl)cn1 ) is 9.5 µM

# TGI (compound: CCOC(=O)c1ccc(-c2cccs2)n1C ) is > 100 µM

# TGI (compound: CC(C)[C@@H]1NC(=O)[C@]2(C)CSC(=N2)c2csc(n2)CNC(=O)C[C@@H](/C=C/CCS)OC1=O ) is > 100 µM

# TGI (compound: CC(C)Cc1ccc(C(C)/C=C2\CCC(CN3CCOCC3)C2=O)cc1 (stereo unspecified) ) is 19.8 µM

* * *

System: M14 melanoma
ASSAY NOTES: NCI tumour cell line growth inhibition, 48 h
Consider the following molecules; for each one, report its TGI.

# TGI (molecule: CC(C)(C)c1ccc(O)c(Br)c1 ) is > 100 µM

# TGI (molecule: N#CC(NC12CC3CC(CC(C3)C1)C2)c1ccccc1 (configuration not stated) ) is > 100 µM

# TGI (molecule: COc1cc(/C=C2\N=C(c3ccccc3)N(c3nc4c(Cl)cc(Cl)cc4s3)C2=O)ccc1O ) is > 100 µM

# TGI (molecule: CCOC(=O)CC(=O)N(c1ccc(OC)cc1)C(C(=O)OC)c1ccccc1 (configuration not stated) ) is > 100 µM

# TGI (molecule: CCOC(=O)CSc1[nH]c2nc(C)nc(Cl)c2c1C#N ) is > 10 µM

# TGI (molecule: Cn1c(=O)c2c(ncn2CCCCn2ccnc2[N+](=O)[O-])n(C)c1=O ) is > 100 µM

# TGI (molecule: NS(=O)(=O)c1cc(S(N)(=O)=O)c(NC(=O)Nc2ccc(Cl)c(Cl)c2)c(Cl)c1Cl ) is > 100 µM

# TGI (molecule: NC(N)=NS(=O)(=O)c1ccc(Nc2c3ccccc3nc3ccc(C(=O)Nc4ccc(S(N)(=O)=O)cc4)cc23)cc1 ) is > 100 µM

# TGI (molecule: CN(C)c1cc2c(Nc3ccc4nc(Cc5ccccc5)[nH]c4c3)ncnc2cn1 ) is > 25 µM

# TGI (molecule: COc1ccc(S(=O)(=O)Nc2cc(/C=C\c3cc(OC)c(OC)c(OC)c3)cc(OC)c2OC)cc1OC ) is > 100 µM

# TGI (molecule: Cc1nc2ccc(N=Nc3c(O)ccc4ccccc34)cc2[nH]1 ) is > 81.5 µM

# TGI (molecule: Nc1ccc(S(=O)(=O)Nc2nc3ccccc3nc2Nc2ccc(S(N)(=O)=O)cc2)cc1 ) is > 100 µM

* * *

System: A498 renal
ASSAY NOTES: NCI tumour cell line growth inhibition, 48 h
Consider the following compounds; for each one, report its TGI.

# TGI (compound: Cn1ccnc1SC(F)(F)c1nc2ccccc2o1 ) is > 100 µM

# TGI (compound: Cc1ccc2c(=O)c(-c3nnsn3)c[nH]c2n1 ) is > 100 µM

# TGI (compound: O=[n+]1cnn([O-])c2ccccc21 ) is > 100 µM

* * *

Test system: HT29 colon
ASSAY NOTES: NCI tumour cell line growth inhibition, 48 h
VALUE TYPE: TGI

# TGI (compound: COc1ccc(C2Cc3cc(OC)c(OC)c(OC)c3C2=O)cc1 (stereo not given) ) is > 100 µM

# TGI (compound: CCOC(=O)NC(=O)c1cn(CCCCCCCCCCC(=O)N2CCN(CCn3cc(C(=O)NC(=O)OCC)c(=O)[nH]c3=O)CC2)c(=O)[nH]c1=O ) is > 100 µM

# TGI (compound: CNC(=S)NNC1=NCCCN1 ) is > 100 µM

# TGI (compound: S=C(Nc1ccc(-c2nc3ccccc3s2)cc1)Nc1ccccn1 ) is > 80.4 µM

# TGI (compound: Brc1ccc(-c2ccc(-c3ccc(-c4ccc(Br)s4)s3)s2)s1 ) is > 100 µM

* * *

System: HT29 colon
ASSAY NOTES: NCI tumour cell line growth inhibition, 48 h; in the data active means GI50 below about 0.43 µM; inactive means the rest
The reply should name one outcome from 1 (yes) for active, 0 (no) for inactive

## Task # outcome recorded in this test, key = Oc1c(Cl)cc(C(c2cc(Cl)c(O)c(Cl)c2)C(c2cc(Cl)c(O)c(Cl)c2)c2cc(Cl)c(O)c(Cl)c2)cc1Cl
## Result 0 (no)

## Task # outcome recorded in this test, key = C[CH2][Sn]1([CH2]C)[O]C2C(O)OC(CO)C(O)C2[O]1 (stereo unspecified)
## Result 0 (no)

## Task # outcome recorded in this test, key = O=C1OCC2=C1C(c1ccccc1)c1cc3c(cc1N2CCO)CCC3 (stereo unspecified)
## Result 1 (yes)

## Task # outcome recorded in this test, key = Cc1oncc1C(=O)Nc1ccc(C(F)(F)F)cc1
## Result 0 (no)

## Task # outcome recorded in this test, key = C=C1C(=O)O[C@H]2[C@H]1CC/C(COC(=O)NCc1c[nH]c3ccc(OC)cc13)=C\CC[C@@]1(C)O[C@@H]21
## Result 0 (no)

## Task # outcome recorded in this test, key = Clc1ccc(-c2nc(-c3c[nH]c4ncccc34)cs2)cc1
## Result 0 (no)

## Task # outcome recorded in this test, key = Cn1c(=O)c(Sc2ccccc2F)cc2cnc(NC3CCOCC3)nc21
## Result 0 (no)

## Task # outcome recorded in this test, key = Cc1cc(N2CCOCC2)nc(N(CCNc2ccnc3cc(Cl)ccc23)Cc2ccco2)n1
## Result 0 (no)

## Task # outcome recorded in this test, key = CCCCC(SC(=S)N(CC)CC)C(=O)Nc1nc(CC(=O)OCC)cs1 (stereo unspecified)
## Result 0 (no)

## Task # outcome recorded in this test, key = CCc1ccc(/C(C#N)=C/C=C/c2ccccc2)cc1
## Result 0 (no)

## Task # outcome recorded in this test, key = COc1ccc(C2=C(Br)C(=O)OC2)cc1Cl
## Result 0 (no)

## Task # outcome recorded in this test, key = C[C@H](Nc1ccc(C#N)n(C)c1=O)c1cc2cc(Cl)ccc2[nH]c1=O
## Result 0 (no)

## Task # outcome recorded in this test, key = CNC(=O)c1cc(Oc2ccc3nc(NC(=O)c4cc(C(F)(F)F)cc(C(F)(F)F)c4)sc3c2)ccn1
## Result 0 (no)

## Task # outcome recorded in this test, key = C=CC[Se]C(=O)c1ccccc1OC(C)=O
## Result 0 (no)

## Task # outcome recorded in this test, key = COc1cccc(C2=NN(C(C)=O)C(c3cc(OC)c(OC)c(OC)c3)C2)c1 (stereo unspecified)
## Result 0 (no)

## Task # outcome recorded in this test, key = S=C(Nc1ccc(-c2nc3ccccc3s2)cc1)Nc1ccccn1
## Result 0 (no)
